Provenance of the data: patent US4693884A

assay: Organ distribution of 99mTc-labeled substances in rats 30 minutes after injection as a function of the amount of substance administered; assay type: in vivo; settings: rat, in vivo, iv, 0.05 mg, 30 min after injection; third amount column (printed 50 μg); n = 3; read-out: Femur/g
experimental_endpoint: tissue uptake at 0.5 h

molecule="O=C(O)C(CC(P(=O)(O)O)P(=O)(O)O)P(=O)(O)O (stereo not shown)" meas_value="0.3 %ID/g"

---

assay: Organ distribution of 99mTc-labeled substances in rats 30 minutes after injection as a function of the amount of substance administered; assay type: in vivo; details: rat, femur, iv, 0.05 mg, 30 min after injection; second amount column (printed 50 μg); n = 3
experimental_endpoint: tissue uptake at 0.5 h (%ID/g)

smiles_representation=O=P(O)(O)C(CC(P(=O)(O)O)P(=O)(O)O)P(=O)(O)O experimental_endpoint="tissue uptake at 0.5 h" meas_value=0.088

---

assay: Organ distribution of 99mTc-labeled substances in rats 30 minutes after injection as a function of the amount of substance administered; type: in vivo; conditions: rat, femur, iv, 0.05 mg, 30 min after injection; third amount column (printed 50 μg); n = 3
experimental_endpoint: tissue uptake at 0.5 h (%ID/g)

molecule="O=P(O)(O)C(CC(P(=O)(O)O)P(=O)(O)O)P(=O)(O)O [PTP, propane-1,1,3,3-tetraphosphonic acid]" meas_value=0.089
